Assay: in vitro
Settings: human, Caco-2
Hi, to clarify the labels: condition met covers Papp A→B from 30 ×10⁻⁶ cm/s upward, condition not met covers anything below 30 ×10⁻⁶ cm/s.

// query Say whether CC(C)CC1(C(=O)c2ccc3[nH]ncc3c2)CCCN1 (stereo unspecified) shows Papp A→B of 30 ×10⁻⁶ cm/s or more.
// result condition met

// query Say whether O=C(c1ccc2[nH]ccc2c1)C1(Cc2ccccc2)CCNC1 (stereo unspecified) shows Papp A→B of 30 ×10⁻⁶ cm/s or more.
// result condition not met

// query Say whether CCCC1(C(=O)c2ccc3[nH]ncc3c2)CCCN1 (stereo unspecified) shows Papp A→B of 30 ×10⁻⁶ cm/s or more.
// result condition not met

// query Say whether CCCC1(C(=O)c2ccc3[nH]ccc3c2)CCCN1 (stereo unspecified) shows Papp A→B of 30 ×10⁻⁶ cm/s or more.
// result condition met

// query Say whether CC(C)(C)CCC1(C(=O)c2ccc3[nH]ncc3c2)CCCN1 (stereo unspecified) shows Papp A→B of 30 ×10⁻⁶ cm/s or more.
// result condition not met
